Molecular target: Bcl-xL protein (Homo sapiens, UniProt Q07817, N197C)
Construct: (2-197)[N197C]; His-His (two His8 stretches joined by a Gly/Ala/Ser/Thr linker)
Sequence (Q07817 2-197 N197C): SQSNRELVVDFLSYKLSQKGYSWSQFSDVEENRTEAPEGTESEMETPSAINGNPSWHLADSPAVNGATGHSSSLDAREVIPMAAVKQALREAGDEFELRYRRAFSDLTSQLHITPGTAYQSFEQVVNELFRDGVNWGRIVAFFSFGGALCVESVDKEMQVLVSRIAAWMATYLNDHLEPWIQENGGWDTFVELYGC
Assay: Fluorescence quenching assay (PUMA peptide displacement)
Type: binding
Details: 1 nM protein, 400 nM peptide, 2 hours at 23° C.; KI determined from IC50
pKi: −log10 of the molar value.
In this section, each of the compounds is paired with its reported pKi.
observed property: pKi

* Cc1cc(N(CCCC(O)C[N+]2(C)CCOCC2)c2nc(C(=O)[O-])c(CCCOc3ccc(C#CCN(C)C)cc3F)s2)nnc1Nc1nc2ccccc2s1 (stereo not drawn) | 11.39
* Cc1cc(N(CCCCCN2CCNCC2)c2nc(C(=O)O)c(CCCOc3ccc(C#CCN(C)C)cc3F)s2)nnc1Nc1nc2ccccc2s1 | 11.13
* Cc1cc(N(C)c2ccc(-c3cnn(CC45CC6(C)CC(C)(C4)CC(OCCNCCCO)(C6)C5)c3C)c(C(=O)O)n2)nnc1Nc1nc2ccccc2s1 | 11.64
